experiment: Solubility in aqueous solutions of surfactants/additives and non-aqueous vehicles (Experimental Example 6); type: physicochemical; conditions: 10% mannitol
Quantity: solubility

[[record]]
compound = "NC(=O)c1nc[nH]c1O [Compound A, 4-carbamoyl-5-hydroxyimidazole]"
observed_value = "4600 µg/mL"


* * *

experiment: Solubility in solutions of basic substances (Experimental Example 7); type: physicochemical; details: pH 8.64; 1% ethanolamine; pH of solvent 8.64
Quantity: solubility

[[record]]
molecule = "NC(=O)c1nc[nH]c1O [Compound A, 4-carbamoyl-5-hydroxyimidazole]"
observed_value = "24.9 mg/mL"


* * *

test: Solubility in aqueous solutions of surfactants/additives and non-aqueous vehicles (Experimental Example 6); format: physicochemical; conditions: 5% sodium salicylate
Quantity: solubility (µg/mL)

[[record]]
compound = "NC(=O)c1nc[nH]c1O [Compound A, 4-carbamoyl-5-hydroxyimidazole]"
observed_value = 6500


* * *

experiment: Solubility in aqueous solutions of surfactants/additives and non-aqueous vehicles (Experimental Example 6); assay type: physicochemical; conditions: saturated aspartic acid
Quantity: solubility (µg/mL)

[[record]]
compound = "NC(=O)c1nc[nH]c1O [Compound A, 4-carbamoyl-5-hydroxyimidazole]"
observed_value = 5400


* * *

assay: Solubility in aqueous solutions of surfactants/additives and non-aqueous vehicles (Experimental Example 6); type: physicochemical; details: corn oil, organic solvent or mixture
Quantity: solubility

[[record]]
compound = "NC(=O)c1nc[nH]c1O [Compound A, 4-carbamoyl-5-hydroxyimidazole]"
quantity = "solubility"
observed_value = "< 2000 µg/mL"


* * *

test: Solubility in aqueous solutions of surfactants/additives and non-aqueous vehicles (Experimental Example 6); format: physicochemical; settings: 5% nicotinic amide
Quantity: solubility (µg/mL)

[[record]]
compound = "NC(=O)c1nc[nH]c1O [Compound A, 4-carbamoyl-5-hydroxyimidazole]"
observed_value = 7200


* * *

assay: Solubility in aqueous solutions of surfactants/additives and non-aqueous vehicles (Experimental Example 6); format: physicochemical; settings: 5% ethylurea
Quantity: solubility (µg/mL)

[[record]]
compound = "NC(=O)c1nc[nH]c1O [Compound A, 4-carbamoyl-5-hydroxyimidazole]"
observed_value = 5600


* * *

assay: Solubility in aqueous solutions of surfactants/additives and non-aqueous vehicles (Experimental Example 6); assay type: physicochemical; settings: sesame oil, organic solvent or mixture
Quantity: solubility

[[record]]
compound = "NC(=O)c1nc[nH]c1O [Compound A, 4-carbamoyl-5-hydroxyimidazole]"
observed_value = "< 2000 µg/mL"


* * *

assay: Solubility in aqueous solutions of surfactants/additives and non-aqueous vehicles (Experimental Example 6); type: physicochemical; conditions: 5% polyoxyethylene hydrogenated castor oil, organic solvent or mixture
Quantity: solubility (µg/mL)

[[record]]
compound = "NC(=O)c1nc[nH]c1O [Compound A, 4-carbamoyl-5-hydroxyimidazole]"
quantity = "solubility"
measurement_units = "µg/mL"
observed_value = 4500


* * *

test: Solubility in aqueous solutions of surfactants/additives and non-aqueous vehicles (Experimental Example 6); type: physicochemical; settings: 5% levulinic acid
Quantity: solubility (µg/mL)

[[record]]
molecule = "NC(=O)c1nc[nH]c1O [Compound A, 4-carbamoyl-5-hydroxyimidazole]"
quantity = "solubility"
observed_value = 6300


* * *

test: Solubility in aqueous solutions of surfactants/additives and non-aqueous vehicles (Experimental Example 6); assay type: physicochemical; settings: water
Quantity: solubility (µg/mL)

[[record]]
compound = "NC(=O)c1nc[nH]c1O [Compound A, 4-carbamoyl-5-hydroxyimidazole]"
quantity = "solubility"
observed_value = 4700


Hello, the source for this data is patent US4582845A, in case you need it.
